# maps each entry to its log10 Ki
Assay target: isolated recombinant JAK1 kinase domain (Homo sapiens (Human), UniProt P23458)
Sequence (P23458 875-1153): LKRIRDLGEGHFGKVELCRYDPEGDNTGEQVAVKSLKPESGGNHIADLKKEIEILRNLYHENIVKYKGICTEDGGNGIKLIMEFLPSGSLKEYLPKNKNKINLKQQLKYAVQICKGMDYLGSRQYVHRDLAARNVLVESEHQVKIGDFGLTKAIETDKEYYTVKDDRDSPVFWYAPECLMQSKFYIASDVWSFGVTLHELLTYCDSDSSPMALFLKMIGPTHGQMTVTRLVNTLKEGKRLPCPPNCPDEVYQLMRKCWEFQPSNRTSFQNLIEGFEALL
Assay procedure: JAK1 enzyme assay (Caliper LabChip, Ki)
Type: biochemical
Readout type: log10 Ki (log10 of the value in nM)

- Compound: "O=C(Nc1cn(C2COC2)nc1-c1cc2sncc2cc1OC(F)F)c1cnn2cccnc12"
  log10 Ki: -0.48
- Compound: "CCN(C)C(=O)Cn1cc(NC(=O)c2cnn3cccnc23)c(-c2cc3c(cc2OC(F)F)NCCO3)n1"
  log10 Ki: -0.51
- Compound: "CNC(=O)Cn1cc(NC(=O)c2cnn3cccnc23)c(-c2cc3c(cc2OC(F)F)NCCO3)n1"
  log10 Ki: -0.60
- Compound: "NCCn1cc(NC(=O)c2cnn3cccnc23)c(-c2cc3c(cc2OC(F)F)NCCS3)n1"
  log10 Ki: -0.74
- Compound: "CCN1CCN(C(=O)Cn2cc(NC(=O)c3cnn4cccnc34)c(-c3cc4ccccc4cc3OC(F)F)n2)CC1"
  log10 Ki: 0.32
- Compound: "CC(C)(C)OC(=O)N1CCC(C(=O)Cn2ncc3cc(-c4n[nH]cc4NC(=O)c4cnn5cccnc45)c(OC(F)F)cc32)CC1"
  log10 Ki: 0.90
- Compound: "C[C@@H]1CNc2cc(OC(F)F)c(-c3nn(CC(=O)N4CCC(CN5CCOCC5)CC4)cc3NC(=O)c3cnn4cccnc34)cc2S1"
  log10 Ki: -0.60
- Compound: "O=C(Nc1cn(CCN2CCOCC2)nc1-c1cc2ccccc2cc1OC(F)F)c1cnn2cccnc12"
  log10 Ki: 0.12
- Compound: "CNC(=O)Cn1cc(NC(=O)c2cnn3cccnc23)c(-c2cc3c(cc2OC(F)F)NCCS3)n1"
  log10 Ki: -1.00
- Compound: "CN(C)C(=O)Cn1cc(NC(=O)c2cnn3cccnc23)c(-c2cc3sncc3cc2OC(F)F)n1"
  log10 Ki: -0.70
- Compound: "O=C(Nc1cn(CC(=O)N2CC=CCC2)nc1-c1cc2c(cc1OC(F)F)NCCS2)c1cnn2cccnc12"
  log10 Ki: -0.96
- Compound: "CN1CCCC1Cn1cc(NC(=O)c2cnn3cccnc23)c(-c2cc3cn[nH]c3cc2OC(F)F)n1 (racemic)"
  log10 Ki: -0.51
- Compound: "O=C(Nc1cn(CC(=O)N2CCC(N3CCOCC3)CC2)nc1-c1cc2sccc2cc1OC(F)F)c1cnn2cccnc12"
  log10 Ki: -0.52
- Compound: "N#Cc1cc2cc(OC(F)F)c(-c3nn(CC(=O)N4CCC(CN5CCOCC5)CC4)cc3NC(=O)c3cnn4cccnc34)cc2s1"
  log10 Ki: -0.44
- Compound: "CC1CNc2cc(OC(F)F)c(-c3nn(CC(=O)N(C)C)cc3NC(=O)c3cnn4cccnc34)cc2S1 (single isomer, unassigned) [Example 106]"
  log10 Ki: -0.77
- Compound: "COc1cc2[nH]cnc2cc1-c1n[nH]cc1NC(=O)c1cnn2cccnc12"
  log10 Ki: 0.32
- Compound: "O=C(Nc1cn(Cc2ncco2)nc1-c1cc2c(cc1OC(F)F)NCCS2)c1cnn2cccnc12"
  log10 Ki: -0.60
- Compound: "CC(C)(C)OC(=O)N1CCN(C(=O)Cn2cc(NC(=O)c3cnn4cccnc34)c(-c3cc4ccccc4cc3OC(F)F)n2)CC1"
  log10 Ki: -0.46
- Compound: "COc1cc2cnccc2cc1-c1n[nH]cc1NC(=O)c1cnn2cccnc12"
  log10 Ki: -0.08
- Compound: "CN(C)C(=O)Cn1cc(NC(=O)c2cnn3cccnc23)c(-c2cc3c(cc2OC(F)F)NCCS3)n1"
  log10 Ki: -0.92
- Compound: "CC1(C)CNc2cc(OC(F)F)c(-c3n[nH]cc3NC(=O)c3cnn4cccnc34)cc2S1"
  log10 Ki: -1.10
- Compound: "O=C(Nc1cn(CC(=O)N2CCCCC2)nc1-c1cc2c(cc1OC(F)F)NCCS2)c1cnn2cccnc12"
  log10 Ki: -0.89
- Compound: "O=C(Nc1cn(CC(=O)N2CCC(CN3CCOCC3)CC2)nc1-c1cc2ccccc2cc1OC(F)F)c1cnn2cccnc12"
  log10 Ki: -0.42
- Compound: "Cn1nnc(Cn2cc(NC(=O)c3cnn4cccnc34)c(-c3cc4c(cc3OC(F)F)NCCS4)n2)n1"
  log10 Ki: -0.85
- Compound: "Cn1cc(NC(=O)c2cnn3cccnc23)c(-c2cc3c(cc2OC(F)F)NCCS3)n1"
  log10 Ki: -1.10
- Compound: "O=C(Nc1cn(Cc2ncco2)nc1-c1cc2c(cc1OC(F)F)NCCO2)c1cnn2cccnc12"
  log10 Ki: -0.44
- Compound: "O=C(Nc1cn(CC(=O)N2CCC(O)CC2)nc1-c1cc2c(cc1OC(F)F)NCCS2)c1cnn2cccnc12"
  log10 Ki: -0.80
- Compound: "Cn1cc(NC(=O)c2cnn3cccnc23)c(-c2cc3c(cc2OC(F)F)NC2(COC2)CO3)n1"
  log10 Ki: -0.47
- Compound: "Cn1cc(NC(=O)c2cnn3cccnc23)c(-c2cc3c(cc2OC(F)F)NC(=O)CO3)n1"
  log10 Ki: -1.05

###

Listing of entries alongside the reported log10 of Ki.
Assay target: isolated recombinant JAK1 kinase domain (Homo sapiens (Human))
Assay procedure: JAK1 enzyme assay (Caliper LabChip, Ki)
Format: biochemical
Readout type: log10 of Ki (log10 of the value in nM)

- Molecule: "O=C(Nc1cn(CC(=O)N2CCC(N3CCOCC3)CC2)nc1-c1cc2c(cc1OC(F)F)NCCO2)c1cnn2cccnc12 [Example 47]"
  Readout type: "log10 of Ki"
  Assay value: -0.51
- Molecule: "O=C(Nc1cn(CC(=O)N2CCC(CN3CCOCC3)CC2)nc1-c1cc2sccc2cc1OC(F)F)c1cnn2cccnc12 [Example 65]"
  Readout type: "log10 of Ki"
  Assay value: -0.39
- Molecule: "C[C@H]1COc2cc(-c3n[nH]cc3NC(=O)c3cnn4cccnc34)c(OC(F)F)cc2N1 [Example 42]"
  Readout type: "log10 of Ki"
  Assay value: -0.36
- Molecule: "O=C1CSc2cc(-c3n[nH]cc3NC(=O)c3cnn4cccnc34)c(OC(F)F)cc2N1 [Example 14]"
  Readout type: "log10 of Ki"
  Assay value: -1.30
- Molecule: "O=C1COc2cc(-c3n[nH]cc3NC(=O)c3cnn4cccnc34)c(OC(F)F)cc2N1 [Example 40]"
  Readout type: "log10 of Ki"
  Assay value: -1.05
- Molecule: "CC(C)(C)OC(=O)N1CCN(C(=O)c2cc3cc(OC(F)F)c(-c4n[nH]cc4NC(=O)c4cnn5cccnc45)cc3s2)CC1 [Example 9]"
  Readout type: "log10 of Ki"
  Assay value: 0.60
- Molecule: "O=C(Nc1cn(CC(=O)N2CCNCC2)nc1-c1cc2ccccc2cc1OC(F)F)c1cnn2cccnc12 [Example 71]"
  Readout type: "log10 of Ki"
  Assay value: -0.07

###

Test system: JAK1-dependent STAT6 phosphorylation in BEAS-2B human bronchial epithelial cells
Assay procedure: JAK1 pathway assay: IL-13 stimulated STAT6 phosphorylation in BEAS-2B cells
Assay type: cell-based
Study conditions: Homo sapiens, BEAS-2B, BEAS-2B cells, IL-13 stimulation; read-out: IL-13 p-STAT6 BEAS-2B IC50

- Compound: "Cn1cc(NC(=O)c2cnn3cccnc23)c(-c2cc3c(cc2OC(F)F)NCCO3)n1"
  Assay target: "JAK1-dependent STAT6 phosphorylation in BEAS-2B human bronchial epithelial cells"
  IC50 (nM): 7
- Compound: "Cn1nnnc1Cn1cc(NC(=O)c2cnn3cccnc23)c(-c2cc3c(cc2OC(F)F)NCCO3)n1"
  Assay target: "JAK1-dependent STAT6 phosphorylation in BEAS-2B human bronchial epithelial cells"
  IC50 (nM): 26
- Compound: "CN1CCC[C@H]1Cn1cc(NC(=O)c2cnn3cccnc23)c(-c2cc3cn[nH]c3cc2OC(F)F)n1"
  Assay target: "JAK1-dependent STAT6 phosphorylation in BEAS-2B human bronchial epithelial cells"
  IC50 (nM): 17
- Compound: "O=C(Nc1cn(CC(=O)N2CCC(N3CCOCC3)CC2)nc1-c1cc2c(cc1OC(F)F)NCCS2)c1cnn2cccnc12"
  Assay target: "JAK1-dependent STAT6 phosphorylation in BEAS-2B human bronchial epithelial cells"
  IC50 (nM): 54
- Compound: "O=C(Nc1cn(CC(=O)N2CCC(N3CCOCC3)CC2)nc1-c1cc2sccc2cc1OC(F)F)c1cnn2cccnc12"
  Assay target: "JAK1-dependent STAT6 phosphorylation in BEAS-2B human bronchial epithelial cells"
  IC50 (nM): 21
- Compound: "Cn1cc(NC(=O)c2cnn3cccnc23)c(-c2cc3c(cc2OC(F)F)NCCS3)n1"
  Assay target: "JAK1-dependent STAT6 phosphorylation in BEAS-2B human bronchial epithelial cells"
  IC50 (nM): 5
- Compound: "CN1CCC[C@@H]1Cn1cc(NC(=O)c2cnn3cccnc23)c(-c2cc3c(cc2OC(F)F)NC(=O)CS3)n1"
  Assay target: "JAK1-dependent STAT6 phosphorylation in BEAS-2B human bronchial epithelial cells"
  IC50 (nM): 9
- Compound: "C[C@H]1CNc2cc(OC(F)F)c(-c3n[nH]cc3NC(=O)c3cnn4cccnc34)cc2O1"
  Assay target: "JAK1-dependent STAT6 phosphorylation in BEAS-2B human bronchial epithelial cells"
  IC50 (nM): 55
- Compound: "C[C@@H]1CNc2cc(OC(F)F)c(-c3n[nH]cc3NC(=O)c3cnn4cccnc34)cc2O1"
  Assay target: "JAK1-dependent STAT6 phosphorylation in BEAS-2B human bronchial epithelial cells"
  IC50 (nM): 37
- Compound: "Cn1cc(NC(=O)c2cnn3cccnc23)c(-c2cc3c(cc2OC(F)F)NC2(COC2)CO3)n1"
  Assay target: "JAK1-dependent STAT6 phosphorylation in BEAS-2B human bronchial epithelial cells"
  IC50 (nM): 14
- Compound: "O=C(Nc1cn(CC(=O)N2CCC(CN3CCOCC3)CC2)nc1-c1cc2c(cc1OC(F)F)NCCS2)c1cnn2cccnc12"
  Assay target: "JAK1-dependent STAT6 phosphorylation in BEAS-2B human bronchial epithelial cells"
  IC50 (nM): 25
- Compound: "COC(=O)Cn1cc(NC(=O)c2cnn3cccnc23)c(-c2cc3sc(C#N)cc3cc2OC(F)F)n1"
  Assay target: "JAK1-dependent STAT6 phosphorylation in BEAS-2B human bronchial epithelial cells"
  IC50 (nM): 21
- Compound: "CN1CCC[C@@H]1Cn1cc(NC(=O)c2cnn3cccnc23)c(-c2cc3c(cc2OC(F)F)NCCS3)n1"
  Assay target: "JAK1-dependent STAT6 phosphorylation in BEAS-2B human bronchial epithelial cells"
  IC50 (nM): 10
- Compound: "O=C(Nc1cn(CC(=O)N2CCC(N3CCOCC3)CC2)nc1-c1cc2c(cc1OC(F)F)NCCO2)c1cnn2cccnc12"
  Assay target: "JAK1-dependent STAT6 phosphorylation in BEAS-2B human bronchial epithelial cells"
  IC50 (nM): 106
- Compound: "CN1CCCC(n2cc(NC(=O)c3cnn4cccnc34)c(-c3cc4cn[nH]c4cc3OC(F)F)n2)C1 (racemic)"
  Assay target: "JAK1-dependent STAT6 phosphorylation in BEAS-2B human bronchial epithelial cells"
  IC50 (nM): 18
